Just for reference, paper PMC12481576 is where these values come from.

This section presents compounds with their documented activity at 6.25 µM values.
Molecular target: LbDHODH (Leishmania braziliensis, UniProt E9AI53)
Sequence (E9AI53 entry or part of it): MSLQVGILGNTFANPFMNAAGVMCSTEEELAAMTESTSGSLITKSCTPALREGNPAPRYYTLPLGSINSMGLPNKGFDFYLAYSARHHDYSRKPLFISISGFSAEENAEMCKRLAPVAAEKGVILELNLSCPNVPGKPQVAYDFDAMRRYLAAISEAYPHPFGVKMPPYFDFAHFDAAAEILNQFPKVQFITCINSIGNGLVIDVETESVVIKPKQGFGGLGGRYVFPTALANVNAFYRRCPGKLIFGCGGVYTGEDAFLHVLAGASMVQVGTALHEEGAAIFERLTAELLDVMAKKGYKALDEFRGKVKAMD
Test: biochemical
Details: 0 h, pH 8.15, read-out: LbDHODH Activity±SD (%)

Example cases with answers are listed next.
O=C1NC(=O)C(=Cc2ccc(C(=O)O)cc2)C(=O)N1 [2b] : 94%
O=C1NC(=O)C(=Cc2ccccc2)C(=O)N1 [2a] : 88%

Query block: Let me know recorded activity at 6.25 µM for COc1cc(C=C2C(=O)NC(=O)NC2=O)ccc1O [2c] , thanks.
Result block: 46%

Query block: Name the recorded activity at 6.25 µM of the item O=C1NC(=O)C(=Cc2cccc(O)c2)C(=O)N1 [2g] in your answer.
Result block: 106%
